- Test system: SW948 cells
- Test name: Growth inhibition, SRB assay, SW948
- Assay type: cell-based
- Condition set: Homo sapiens, SW948, 72 h, 5-FU + 10 µM dl-LV, read-out: IC50, 72 h drug exposure
Observation type: IC50 (nM)
Write down the numeric answer in nM and omit the unit.

Requested read-out: IC50. Entry: O=c1[nH]cc(F)c(=O)[nH]1 2780

---

- Test system: LS174T cells
- Test name: Growth inhibition, SRB assay, LS174T
- Format: cell-based
- Condition set: Homo sapiens, 72 h, 5-FU + 10 µM dl-LV, read-out: IC50, 72 h drug exposure
Observation type: IC50 (µM)
Write down the numeric answer in µM and omit the unit.

Fill in the recorded IC50 for this compound, with LS174T cells as test system: O=c1[nH]cc(F)c(=O)[nH]1 [5-FU, 5-fluorouracil] 8.95

Values were extracted from paper PMC11371747.
